- target.desc: α-subunit of NaV1.2 neuronal sodium channels (Rattus norvegicus, UniProt P04775)
- Sequence (P04775 whole entry): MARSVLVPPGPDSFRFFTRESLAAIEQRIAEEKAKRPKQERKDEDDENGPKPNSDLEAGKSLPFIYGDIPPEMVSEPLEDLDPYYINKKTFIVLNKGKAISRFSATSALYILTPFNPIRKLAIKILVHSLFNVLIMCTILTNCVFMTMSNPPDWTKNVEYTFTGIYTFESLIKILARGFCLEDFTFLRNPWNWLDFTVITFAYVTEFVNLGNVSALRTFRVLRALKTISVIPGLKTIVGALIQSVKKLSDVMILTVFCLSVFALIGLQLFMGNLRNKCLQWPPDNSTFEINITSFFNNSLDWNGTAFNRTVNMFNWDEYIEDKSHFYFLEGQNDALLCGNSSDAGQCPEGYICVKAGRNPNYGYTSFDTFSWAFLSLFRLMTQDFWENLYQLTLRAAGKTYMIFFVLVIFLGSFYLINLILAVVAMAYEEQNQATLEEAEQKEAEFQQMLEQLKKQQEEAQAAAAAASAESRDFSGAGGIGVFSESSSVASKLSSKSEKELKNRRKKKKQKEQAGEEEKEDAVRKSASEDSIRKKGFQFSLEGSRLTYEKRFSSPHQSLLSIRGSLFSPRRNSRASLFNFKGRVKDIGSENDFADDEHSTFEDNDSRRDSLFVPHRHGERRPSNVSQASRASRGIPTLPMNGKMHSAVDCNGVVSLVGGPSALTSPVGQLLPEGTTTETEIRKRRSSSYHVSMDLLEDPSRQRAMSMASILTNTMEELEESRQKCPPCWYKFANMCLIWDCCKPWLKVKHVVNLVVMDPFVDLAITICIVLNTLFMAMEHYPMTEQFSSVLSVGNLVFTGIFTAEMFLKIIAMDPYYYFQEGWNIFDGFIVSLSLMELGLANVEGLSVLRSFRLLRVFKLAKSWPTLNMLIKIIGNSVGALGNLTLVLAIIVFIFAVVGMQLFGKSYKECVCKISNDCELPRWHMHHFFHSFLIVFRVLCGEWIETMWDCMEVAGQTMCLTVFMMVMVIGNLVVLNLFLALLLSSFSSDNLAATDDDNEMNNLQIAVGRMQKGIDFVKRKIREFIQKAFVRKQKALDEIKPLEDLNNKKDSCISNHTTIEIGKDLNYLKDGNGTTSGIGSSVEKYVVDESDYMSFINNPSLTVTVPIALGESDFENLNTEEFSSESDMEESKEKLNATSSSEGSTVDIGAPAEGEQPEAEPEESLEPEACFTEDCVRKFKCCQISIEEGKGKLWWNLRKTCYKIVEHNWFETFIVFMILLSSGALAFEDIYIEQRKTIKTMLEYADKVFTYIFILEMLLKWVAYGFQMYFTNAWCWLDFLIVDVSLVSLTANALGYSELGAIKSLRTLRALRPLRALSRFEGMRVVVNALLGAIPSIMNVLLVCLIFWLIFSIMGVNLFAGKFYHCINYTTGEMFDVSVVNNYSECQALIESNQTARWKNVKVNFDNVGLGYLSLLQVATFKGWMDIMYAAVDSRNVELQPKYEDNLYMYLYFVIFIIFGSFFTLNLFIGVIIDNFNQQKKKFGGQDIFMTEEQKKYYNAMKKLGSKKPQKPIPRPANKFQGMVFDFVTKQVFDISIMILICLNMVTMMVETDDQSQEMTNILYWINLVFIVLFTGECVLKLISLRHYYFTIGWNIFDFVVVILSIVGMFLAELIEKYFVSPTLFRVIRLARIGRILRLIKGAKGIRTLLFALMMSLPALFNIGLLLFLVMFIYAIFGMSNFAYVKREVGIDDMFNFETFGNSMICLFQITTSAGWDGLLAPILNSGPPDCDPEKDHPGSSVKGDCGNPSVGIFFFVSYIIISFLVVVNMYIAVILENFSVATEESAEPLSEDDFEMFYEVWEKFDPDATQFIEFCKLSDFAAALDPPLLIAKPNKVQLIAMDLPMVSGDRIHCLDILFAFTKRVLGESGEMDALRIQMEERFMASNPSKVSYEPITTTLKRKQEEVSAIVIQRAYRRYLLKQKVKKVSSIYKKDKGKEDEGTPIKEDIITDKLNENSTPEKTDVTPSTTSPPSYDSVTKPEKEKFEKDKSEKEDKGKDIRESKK
- protocol.text: Whole-cell voltage-clamp, double-pulse protocol: steady-state availability (fast inactivation), voltage shift and model-dependent affinity for inactivated channels
- Format: cell-based
- Design: expressed in transfected cells; host or cells: HEK 293, stably transfected with expression vector pRc/CMV and selected with G418
metric: IC50
Note to self: number, then unit, no commentary.

# CCCCCc1ccc(C)cc1O [AMC, amylmetacresol] with α-subunit of NaV1.2 neuronal sodium channels (Rattus norvegicus, UniProt P04775): IC50 is 22 µM

* * *

- target.desc: α-subunit of NaV1.2 neuronal sodium channels (Rattus norvegicus, UniProt P04775)
- protocol.text: cell-based
- condition.description: -150 mV holding potential
metric: currents during wash-out, % of control current

Recorded result, CCCCC(CC)CN1CN(CC(CC)CCCC)CC(C)(N)C1 (stereo not shown) [HT, hexetidine] , currents during wash-out, % of control current: 80 ± 8%

Recorded result, OCc1ccc(Cl)cc1Cl [DCBA, 2,4-dichlorobenzyl alcohol] , currents during wash-out, % of control current: 88 ± 3%

Recorded result, CCCCCc1ccc(C)cc1O [AMC, amylmetacresol] , currents during wash-out, % of control current: 90 ± 3%

Recorded result, CCCCCCc1ccc(O)cc1O [HR, hexylresorcinol] , currents during wash-out, % of control current: 95 ± 3%

* * *

- target.desc: α-subunit of NaV1.2 neuronal sodium channels (Rattus norvegicus)
- protocol.text: cell-based
- condition.description: estimated EC50, high-affinity binding site, biphasic concentration-response curve, two distinct binding sites
metric: pIC50
pIC50 is a log-scale quantity: -log10 of the concentration expressed in molar.

Recorded result, CCCCC(CC)CN1CN(CC(CC)CCCC)CC(C)(N)C1 (stereo not shown) , pIC50: 9.00

* * *

- target.desc: α-subunit of NaV1.2 neuronal sodium channels (Rattus norvegicus, UniProt P04775)
- protocol.text: Whole-cell voltage-clamp, double-pulse protocol: steady-state availability (fast inactivation), voltage shift and model-dependent affinity for inactivated channels
- Assay type: cell-based
- Design: expressed in transfected cells; host or cells: HEK 293, stably transfected with expression vector pRc/CMV and selected with G418
- condition.description: estimate for inactivated channels, model fit of Eq.4 to concentration-dependence of the voltage shift in the availability curve; read-out: ECI50
So I've got a bunch of compounds here, and I need their IC50 values.
Express the result in µM but write the number alone.

Recorded result, CCCCCCc1ccc(O)cc1O [HR, hexylresorcinol] , IC50: 0.3

Recorded result, OCc1ccc(Cl)cc1Cl [DCBA, 2,4-dichlorobenzyl alcohol] , IC50: 5.2

Recorded result, CCCCC(CC)CN1CN(CC(CC)CCCC)CC(C)(N)C1 (stereo not drawn) [HT, hexetidine] , IC50: 0.05

* * *

- target.desc: α-subunit of NaV1.2 neuronal sodium channels (Rattus norvegicus, UniProt P04775)
- protocol.text: cell-based
- condition.description: ECR50, half maximum blocking concentration, resting channels; fit to concentration-response plots at -150 mV holding potential; HEK 293, 20°C
So I've got a bunch of compounds here, and I need their IC50 values.
Express the result in µM but write the number alone.

Recorded result, CCCCC(CC)CN1CN(CC(CC)CCCC)CC(C)(N)C1 (stereo not drawn) [HT, hexetidine] , IC50: 35

Recorded result, CCCCCCc1ccc(O)cc1O [HR, hexylresorcinol] , IC50: 21

Recorded result, OCc1ccc(Cl)cc1Cl [DCBA, 2,4-dichlorobenzyl alcohol] , IC50: 657

This collection of values is drawn from patent EP2570123A1.
